# MEASURED_TARGET: UniProtKB P11229
# Sequence (P11229 whole entry): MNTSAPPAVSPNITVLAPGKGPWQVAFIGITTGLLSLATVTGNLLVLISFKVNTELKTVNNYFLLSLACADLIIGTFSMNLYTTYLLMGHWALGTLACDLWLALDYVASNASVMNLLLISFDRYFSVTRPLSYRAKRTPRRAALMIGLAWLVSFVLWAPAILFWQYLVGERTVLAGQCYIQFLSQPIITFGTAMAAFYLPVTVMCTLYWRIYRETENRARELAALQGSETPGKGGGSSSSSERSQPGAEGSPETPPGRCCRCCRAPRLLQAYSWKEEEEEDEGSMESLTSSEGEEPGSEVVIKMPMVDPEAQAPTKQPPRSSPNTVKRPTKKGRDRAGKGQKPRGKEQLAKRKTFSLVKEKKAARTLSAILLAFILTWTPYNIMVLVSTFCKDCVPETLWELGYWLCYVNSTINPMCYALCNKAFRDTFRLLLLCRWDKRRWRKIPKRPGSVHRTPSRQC
# EXPERIMENTAL_PROTOCOL: Alphascreen Surefire phospho-ERK1/2 functional assay, M1
# Type: cell-based
# CONDITION_NOTES: CHO, read-out: % Emax cf. ACh, M1, CHO cells stably expressing human M1; relative to ACh
OUTCOME_MEASURE: Emax (%)
Entry rule: numbers only, all in %.

MOLECULE: COC(=O)N1CCC2(CC(N3CCC([C@@H]4CCCN4C(=O)NCC(F)(F)F)CC3)C2)C1 (single isomer, unassigned) [2-40 Isomer 2]
OUTCOME_MEASURE: Emax
REPORTED_VALUE: 78
//
MOLECULE: CCOC(=O)N1CCC2(CC(N3CCC([C@@H]4CCCN4c4ccccc4)CC3)C2)C1 (single isomer, unassigned) [2-77 Isomer 2]
OUTCOME_MEASURE: Emax
REPORTED_VALUE: 51
//
MOLECULE: CCOC(=O)N1CCC2(CC(N3CCC(N4CCC(F)(F)CC4)CC3)C2)C1 (single isomer, unassigned) [4-14 Isomer 2]
OUTCOME_MEASURE: Emax
REPORTED_VALUE: 28
//
MOLECULE: COC(=O)N1CCC2(CC(N3CCC(n4cc(C)cn4)CC3)C2)C1 (single isomer, unassigned) [1-42 Isomer 2]
OUTCOME_MEASURE: Emax
REPORTED_VALUE: 123
//
MOLECULE: CCCn1nccc1C1CCN(C2CC3(CCN(C(=O)OC)C3)C2)CC1 (single isomer, unassigned) [1-48 Isomer 2]
OUTCOME_MEASURE: Emax
REPORTED_VALUE: 63

Now, please, on to the next molecule.
What measured Emax goes with CCOC(=O)N1CCC2(CC(N3CCC(N4CCCC4c4ccon4)CC3)C2)C1 (single isomer, unassigned) [2-127 Isomer 2] ?
11
